Entry source: patent US11111264B2

Experiment: Exact solubility of Compound 1 Form A in selected solvent systems (1 day suspension, HPLC)
Type: physicochemical
Details: aqueous with cosolvent or surfactant or cyclodextrin, thermodynamic from solid, 2-Propanol/NaOH aq 0.1M 1:3 v/v, 24° C.
OBSERVATION_TYPE: solubility at 1 day (mg/mL)
Value expressed in mg/mL; do not type the unit.

Q: Bench note: what solubility at 1 day did `Cc1nc(N)c2c(C(N)=O)cn([C@@H]3O[C@H](CO)[C@@H](O)[C@H]3O)c2n1` show?
A: 14.1

* * *

Assay: Dynamic vapor sorption (DVS)
Format: physicochemical
Conditions: 25° C.; mass as a function of relative humidity
OBSERVATION_TYPE: hygroscopicity (from DVS)

Q: Bench note: what hygroscopicity (from DVS) did Cc1nc(N)c2c(C(N)=O)cn([C@@H]3O[C@H](CO)[C@@H](O)[C@H]3O)c2n1 [Form E] show?
A: hygroscopic

Q: Bench note: what hygroscopicity (from DVS) did Cc1nc(N)c2c(C(N)=O)cn([C@@H]3O[C@H](CO)[C@@H](O)[C@H]3O)c2n1 [Form B] show?
A: hygroscopic

Q: Bench note: what hygroscopicity (from DVS) did Cc1nc(N)c2c(C(N)=O)cn([C@@H]3O[C@H](CO)[C@@H](O)[C@H]3O)c2n1 [Form D] show?
A: hygroscopic
